Biological target: T1, human TREM2 (human, UniProt Q9NZC2 19-230)
T1 construct: on THP-1 WT cells and M2a-like macrophages (endogenous) and on CHO or HEK293T cells overexpressing human TREM2 with DAP12; also called hTREM2
T1 sequence: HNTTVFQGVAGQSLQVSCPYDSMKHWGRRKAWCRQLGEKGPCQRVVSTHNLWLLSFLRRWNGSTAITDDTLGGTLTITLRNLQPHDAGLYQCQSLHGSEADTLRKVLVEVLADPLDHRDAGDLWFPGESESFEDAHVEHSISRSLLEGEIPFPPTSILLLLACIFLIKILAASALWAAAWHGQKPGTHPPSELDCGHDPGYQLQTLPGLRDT
Experiment: flow cytometry, M2a-like macrophages, dose-response
OBSERVATION_TYPE: pKd
API: returns pKd as number; meaning -log10 of concentration in mol/L.

Solved entries (count: 2):
BINDER	OBSERVATION_TYPE	VAL
EOS006165 (antibody, V domains shown) VH: QVQLVQSGAEVKKPGSSVKVSCKASGGTFSSYAISWVRQAPGQGLEWMGGIIPISGTANYAQKFQGRVTITADESTSTAYMELSSLRSEDTAVYYCARTQEYTAFDIWGQGTMVTVSS VL: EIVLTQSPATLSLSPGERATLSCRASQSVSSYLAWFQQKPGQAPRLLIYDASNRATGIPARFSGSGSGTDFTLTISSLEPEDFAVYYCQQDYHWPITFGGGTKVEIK	pKd	9.39
EOS006171 (antibody, V domains shown) VH: QVQLVESGGGLVKPGGSLRLSCAASGFTFSDYYMSWIRQAPGKGLEWVSYISSSGSTIYYADSVKGRFTISRDNAKNSLYLQMNSLRAEDTAVYYCARLGGYYSLGPMDVWGQGTTVTVSS VL: EIVLTQSPATLSLSPGERATLSCRASQSVSSYLAWYQQKPGQAPRLLIYDASNRATGIPARFSGSGSGTDFTLTISSLEPEDFAVYYCQQDSAFPFTFGGGTKVEIK	pKd	8.55

Entry under test: EOS006162 (antibody, V domains shown) VH: QVQLVQSGAEVKKPGSSVKVSCKASGGTFSSYAISWVRQAPGQGLEWMGGIIPISGTANYAQKFQGRVTITADESTSTAYMELSSLRSEDTAVYYCARTQEYTLFDSWGQGTMVTVSS VL: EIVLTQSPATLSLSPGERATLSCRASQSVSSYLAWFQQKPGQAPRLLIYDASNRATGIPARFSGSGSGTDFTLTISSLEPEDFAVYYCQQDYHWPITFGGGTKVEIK . Its pKd was 9.89

Short answer for EOS006170 (antibody, V domains shown) VH: QVQLQESGPGLVKPSGTLSLTCAVSGGSISSSNWWSWVRQPPGKGLEWIGEIYHSGSTNYNPSLKSRVTISVDKSKNQFSLKLSSVTAADTAVYYCARDTKYQAGMDVWGQGTTVTVSS VL: DIQMTQSPSSLSASVGDRVTITCQASQDISNYLNWYQQKPGKAPKLLIYDASNLATGVPSRFSGSGSGTDFTFTISSLQPEDIATYYCQQYVVFPTFGGGTKVEIK : pKd was 8.09

Reported pKd of EOS006172 (antibody, V domains shown) VH: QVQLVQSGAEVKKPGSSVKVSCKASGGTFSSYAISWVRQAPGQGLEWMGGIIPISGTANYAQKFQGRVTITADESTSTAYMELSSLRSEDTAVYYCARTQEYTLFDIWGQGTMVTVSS VL: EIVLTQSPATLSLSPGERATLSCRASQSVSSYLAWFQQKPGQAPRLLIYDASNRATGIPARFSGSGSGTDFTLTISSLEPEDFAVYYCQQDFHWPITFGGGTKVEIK : 10.05

The binder listed as EOS006175 (antibody, V domains shown) VH: QVQLQESGPGLVKPSGTLSLTCAVSGGSISSSNWWSWVRQPPGKGLEWIGEIYHSGSTNYNPSLKSRVTISVDKSKNQFSLKLSSVTAADTAVYYCARDTKYWGGMDVWGQGTTVTVSS VL: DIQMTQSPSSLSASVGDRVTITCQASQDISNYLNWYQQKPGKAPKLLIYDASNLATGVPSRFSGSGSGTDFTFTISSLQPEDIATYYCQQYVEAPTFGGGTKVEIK shows pKd equal to 8.97

What the record says about EOS006173 (antibody, V domains shown, also called EOS061730) VH: EVQLVESGGGLVQPGRSLRLSCTASGFTFGDYAMSWFRQAPGKGLEWVGFIGSKAYGGTTEYTASVKGRFTISRDGSKSIAYLQMNSLKTEDTAVYYCARGKRRDYGYWHPAFDVWGQGTMVTVSS VL: DIQMTQSPSSLSASVGDRVTITCQASQDITNYLNWYQQKPGKAPKLLIYDASNLETGVPSRFSGSGSGTDFTFTISSLQPEDIATYYCQEYDQYLTFGGGTKVEIK : pKd is 9.52
